# Pseudoaglycone of Cmpd 1 (HPLC area %) Initial per record follows
Test: Stability of hydrochloride salts of telavancin on storage (HPLC area % of pseudoaglycone and aglycone impurities)
Type: physicochemical
Conditions: before storage at 25° C.
Report only the number, with the unit HPLC area % understood.

CCCCCCCCCCNCCN[C@@]1(C)C[C@H](O[C@H]2[C@H](Oc3c4cc5cc3Oc3ccc(cc3Cl)[C@@H](O)[C@@H](NC(=O)[C@@H](CC(C)C)NC)C(=O)N[C@@H](CC(N)=O)C(=O)N[C@H]5C(=O)N[C@H]3C(=O)N[C@H](C(=O)N[C@H](C(=O)O)c5cc(O)c(CNCP(=O)(O)O)c(O)c5-c5cc3ccc5O)[C@H](O)c3ccc(c(Cl)c3)O4)O[C@H](CO)[C@@H](O)[C@@H]2O)O[C@@H](C)[C@H]1O [2.42, telavancin] ... 0.32
CCCCCCCCCCNCCN[C@@]1(C)C[C@H](O[C@H]2[C@H](Oc3c4cc5cc3Oc3ccc(cc3Cl)[C@@H](O)[C@@H](NC(=O)[C@@H](CC(C)C)NC)C(=O)N[C@@H](CC(N)=O)C(=O)N[C@H]5C(=O)N[C@H]3C(=O)N[C@H](C(=O)N[C@H](C(=O)O)c5cc(O)c(CNCP(=O)(O)O)c(O)c5-c5cc3ccc5O)[C@H](O)c3ccc(c(Cl)c3)O4)O[C@H](CO)[C@@H](O)[C@@H]2O)O[C@@H](C)[C@H]1O [4.69, telavancin] ... 0.45
CCCCCCCCCCNCCN[C@@]1(C)C[C@H](O[C@H]2[C@H](Oc3c4cc5cc3Oc3ccc(cc3Cl)[C@@H](O)[C@@H](NC(=O)[C@@H](CC(C)C)NC)C(=O)N[C@@H](CC(N)=O)C(=O)N[C@H]5C(=O)N[C@H]3C(=O)N[C@H](C(=O)N[C@H](C(=O)O)c5cc(O)c(CNCP(=O)(O)O)c(O)c5-c5cc3ccc5O)[C@H](O)c3ccc(c(Cl)c3)O4)O[C@H](CO)[C@@H](O)[C@@H]2O)O[C@@H](C)[C@H]1O [3.68, telavancin] ... 0.43

input: Consider the compound shown here: CCCCCCCCCCNCCN[C@@]1(C)C[C@H](O[C@H]2[C@H](Oc3c4cc5cc3Oc3ccc(cc3Cl)[C@@H](O)[C@@H](NC(=O)[C@@H](CC(C)C)NC)C(=O)N[C@@H](CC(N)=O)C(=O)N[C@H]5C(=O)N[C@H]3C(=O)N[C@H](C(=O)N[C@H](C(=O)O)c5cc(O)c(CNCP(=O)(O)O)c(O)c5-c5cc3ccc5O)[C@H](O)c3ccc(c(Cl)c3)O4)O[C@H](CO)[C@@H](O)[C@@H]2O)O[C@@H](C)[C@H]1O [5.74, telavancin] What is its recorded Pseudoaglycone of Cmpd 1 (HPLC area %) Initial?
output: 0.89

input: Consider the compound shown here: CCCCCCCCCCNCCN[C@@]1(C)C[C@H](O[C@H]2[C@H](Oc3c4cc5cc3Oc3ccc(cc3Cl)[C@@H](O)[C@@H](NC(=O)[C@@H](CC(C)C)NC)C(=O)N[C@@H](CC(N)=O)C(=O)N[C@H]5C(=O)N[C@H]3C(=O)N[C@H](C(=O)N[C@H](C(=O)O)c5cc(O)c(CNCP(=O)(O)O)c(O)c5-c5cc3ccc5O)[C@H](O)c3ccc(c(Cl)c3)O4)O[C@H](CO)[C@@H](O)[C@@H]2O)O[C@@H](C)[C@H]1O [4.59, telavancin] What is its recorded Pseudoaglycone of Cmpd 1 (HPLC area %) Initial?
output: 0.52

input: Consider the compound shown here: CCCCCCCCCCNCCN[C@@]1(C)C[C@H](O[C@H]2[C@H](Oc3c4cc5cc3Oc3ccc(cc3Cl)[C@@H](O)[C@@H](NC(=O)[C@@H](CC(C)C)NC)C(=O)N[C@@H](CC(N)=O)C(=O)N[C@H]5C(=O)N[C@H]3C(=O)N[C@H](C(=O)N[C@H](C(=O)O)c5cc(O)c(CNCP(=O)(O)O)c(O)c5-c5cc3ccc5O)[C@H](O)c3ccc(c(Cl)c3)O4)O[C@H](CO)[C@@H](O)[C@@H]2O)O[C@@H](C)[C@H]1O [4.41, telavancin] What is its recorded Pseudoaglycone of Cmpd 1 (HPLC area %) Initial?
output: 0.42

input: Consider the compound shown here: CCCCCCCCCCNCCN[C@@]1(C)C[C@H](O[C@H]2[C@H](Oc3c4cc5cc3Oc3ccc(cc3Cl)[C@@H](O)[C@@H](NC(=O)[C@@H](CC(C)C)NC)C(=O)N[C@@H](CC(N)=O)C(=O)N[C@H]5C(=O)N[C@H]3C(=O)N[C@H](C(=O)N[C@H](C(=O)O)c5cc(O)c(CNCP(=O)(O)O)c(O)c5-c5cc3ccc5O)[C@H](O)c3ccc(c(Cl)c3)O4)O[C@H](CO)[C@@H](O)[C@@H]2O)O[C@@H](C)[C@H]1O [3.94, telavancin] What is its recorded Pseudoaglycone of Cmpd 1 (HPLC area %) Initial?
output: 0.43

input: Consider the compound shown here: CCCCCCCCCCNCCN[C@@]1(C)C[C@H](O[C@H]2[C@H](Oc3c4cc5cc3Oc3ccc(cc3Cl)[C@@H](O)[C@@H](NC(=O)[C@@H](CC(C)C)NC)C(=O)N[C@@H](CC(N)=O)C(=O)N[C@H]5C(=O)N[C@H]3C(=O)N[C@H](C(=O)N[C@H](C(=O)O)c5cc(O)c(CNCP(=O)(O)O)c(O)c5-c5cc3ccc5O)[C@H](O)c3ccc(c(Cl)c3)O4)O[C@H](CO)[C@@H](O)[C@@H]2O)O[C@@H](C)[C@H]1O [5.60, telavancin] What is its recorded Pseudoaglycone of Cmpd 1 (HPLC area %) Initial?
output: 0.48
